meta.source: ChEMBL document CHEMBL4196009

System: HepG2
measurement_protocol: Antiproliferative activity against human HepG2 cells after 72 hrs by CelTiter-Glo assay
Type: functional, cell-based
condition_notes: HepG2, 72 h
readout_kind: EC50

The cases that follow already have their EC50 on record.
[[record]]
smiles_code = "COc1cc(OC)c2c(=O)cc(C(=O)Nc3ccc(C4CCCCC4)cc3)[nH]c2c1"
readout_kind = "EC50"
recorded_result = "> 43.1 µM"

[[record]]
smiles_code = "COC(=O)c1cc(=O)c2c(OC)cc(OC)cc2[nH]1"
readout_kind = "EC50"
recorded_result = "> 34.5 µM"

[[record]]
smiles_code = "COc1cc(OC)c2c(=O)cc(C(=O)Nc3ccc(S(=O)(=O)c4ccccc4)cc3)[nH]c2c1"
readout_kind = "EC50"
recorded_result = "> 70.7 µM"


Task: Bench note: what EC50 did `COC(=O)c1cc(=O)c2cc(NC(=O)Nc3ccc(C(F)(F)F)cc3)ccc2[nH]1` show?
Output: > 6.35 µM

Task: Try this compound next: `COc1ccc(Oc2ccc(C(F)(F)F)cc2NC(=O)c2cc(=O)c3c(OC)cc(OC)cc3[nH]2)cc1`
Output: 5.3 µM

Task: Try this compound next: `COc1cc(OC)c2c(=O)cc(C(=O)Nc3ccc(N4CCOCC4)cc3)[nH]c2c1`
Output: > 36.8 µM

Task: Try this compound next: `COC(=O)c1cc(=O)c2cc(NC(=O)Nc3ccc(Cl)c(Cl)c3)ccc2[nH]1`
Output: > 6.35 µM

Task: Try this compound next: `COc1cc(OC)c2c(=O)cc(C(=O)Nc3ccc4oc(-c5ccc(F)cc5)nc4c3)[nH]c2c1`
Output: > 36.8 µM

Task: Try this compound next: `COc1ccc(-c2cc(=O)c3c(OC)cc(OC)cc3n2S(=O)(=O)c2ccc(Cl)cc2)cc1`
Output: > 34.5 µM
